# System: OVCAR4
# protocol notes: Euclidean distance of Cell Painting phenotypic profile (signed KS, 77 features) to DMSO centroid (dimensionless distance); 5 or 10 uM (library dependent); higher = stronger phenotypic change vs DMSO (phenoactivity)
# experimental setup: 48 h
Let's look at some molecules and their measured Euclidean distance.
Keep it simple and answer with nothing but the number.

Solved entries (count: 4):
>>> experimental_result("COc1ccc(-c2ccc3c(N4CCOC[C@@H]4C)nc(N4CCOC[C@@H]4C)nc3n2)cc1CO")
3.73
>>> experimental_result("N=C(N)c1ccc(OCCCCCOc2ccc(C(=N)N)cc2)cc1 [Pentamidine]")
1.65
>>> experimental_result("COc1cc2ncnc(Nc3ccc(O)c(Br)c3)c2cc1OC")
0.933
>>> experimental_result("Cn1cc(CNCC2CCN(c3ncc(C(=O)NO)cn3)CC2)c2ccccc21")
3.65

IN: For OVCAR4, give Euclidean distance of the listed molecule: `OCCn1cc(-c2ccc3c(c2)CC/C3=N\O)c(-c2ccncc2)n1`
OUT: 1.88

IN: For OVCAR4, give Euclidean distance of the listed molecule: CN1C2CCCC1CC(NC(=O)c1nn(C)c3ccccc13)C2 (centres undefined) [Granisetron]
OUT: 2.06

IN: For OVCAR4, give Euclidean distance of the listed molecule: `CN(C)C(=O)c1ccc(S(=O)(=O)c2ccc(NC(=O)[C@@](C)(O)C(F)(F)F)c(Cl)c2)cc1`
OUT: 0.57

IN: For OVCAR4, give Euclidean distance of the listed molecule: `Cc1cccc(Oc2cnc(=O)[nH]c2)c1`
OUT: 0.931

IN: For OVCAR4, give Euclidean distance of the listed molecule: CCc1ccc(Cc2ccc3c(c2)[C@]2(OC3)O[C@H](CO)[C@@H](O)[C@H](O)[C@H]2O)cc1 [Tofogliflozin(CSG 452)]
OUT: 1.56

* * *

# System: 786-O
# protocol notes: Euclidean distance of Cell Painting phenotypic profile (signed KS, 77 features) to DMSO centroid (dimensionless distance); 5 or 10 uM (library dependent); higher = stronger phenotypic change vs DMSO (phenoactivity)
# experimental setup: 48 h
Counter-ions that a name gives are not always drawn.
Let's look at some compounds and their measured Euclidean distance.

Solved entries (count: 5):
>>> experimental_result("N=C(N)NC(=O)c1nc(Cl)c(N)nc1N [Amiloride HCl]")
1.05
>>> experimental_result("O=C(c1c(F)ccc(NS(=O)(=O)N2CC[C@@H](F)C2)c1F)c1c[nH]c2ncc(-c3cnc(C4CC4)nc3)cc12")
1.42
>>> experimental_result("Nc1ncnc2c1c(-c1cccc(OCc3ccccc3)c1)cn2C1CC(CN2CCCC2)C1 (stereo unspecified)")
2.84
>>> experimental_result("CN(C)C(=N)NC(=N)N [Metformin HCl]")
1.61
>>> experimental_result("COC(=O)c1ccccc1O [Methyl salicylate]")
0.625

Next compound, please.
IN: Input `O=C(NCCN1CCOCC1)c1ccc(Cl)cc1` , output reported Euclidean distance.
OUT: 1.01

* * *

# Tested on: FB
# protocol notes: Euclidean distance of Cell Painting phenotypic profile (signed KS, 77 features) to DMSO centroid (dimensionless distance); 5 or 10 uM (library dependent); higher = stronger phenotypic change vs DMSO (phenoactivity)
# experimental setup: 48 h
Counter-ions that a name gives are not always drawn.
Classes (Euclidean distance): class 1 (below 0.9), class 2 (0.9 to below 1), class 3 (1 or more)

>>> category_label("NC(=O)c1cnc(N[C@@H]2CCCC[C@@H]2N)nc1Nc1cccc(-n2nccn2)c1")
"class 3"
>>> category_label("CCOCc1nc2c(N)nc3ccccc3c2n1CC(C)(C)O")
"class 2"
>>> category_label("CC(C)C(=O)OCC(=O)[C@@]12O[C@H](C3CCCCC3)O[C@@H]1C[C@H]1[C@@H]3CCC4=CC(=O)C=C[C@]4(C)[C@H]3[C@@H](O)C[C@@]12C [Ciclesonide]")
"class 3"
>>> category_label("CCCc1cc(=O)[nH]c(=S)[nH]1")
"class 3"
>>> category_label("CCOCCn1c(C2CCN(CCc3ccc(C(C)(C)C(=O)O)cc3)CC2)nc2ccccc21")
"class 2"
>>> category_label("Cc1onc(-c2ccccc2)c1C(=O)N[C@@H]1C(=O)N2[C@@H]1SC(C)(C)[C@@H]2C(=O)O [Oxacillin sodium monohydrate]")
"class 3"

IN: Using the reported Euclidean distance, which band applies to `Cc1nc(C(=O)NCC(=O)O)c(O)c2ccc(Oc3ccccc3)cc12` ?
OUT: class 3

IN: Using the reported Euclidean distance, which band applies to O=C(Nc1ncc([N+](=O)[O-])s1)c1ccccc1O [Tizoxanide] ?
OUT: class 3

IN: Using the reported Euclidean distance, which band applies to `CN(C)c1cccc(-c2c3c(=O)n(-c4ccccc4Cl)[nH]c3cc(=O)n2C)c1` ?
OUT: class 1

IN: Using the reported Euclidean distance, which band applies to CN[C@@H]1[C@H](O)[C@H](NC)[C@H]2O[C@@]3(O)C(=O)C[C@@H](C)O[C@H]3O[C@@H]2[C@H]1O [Spectinomycin HCl] ?
OUT: class 3

IN: Using the reported Euclidean distance, which band applies to `CC[C@H]1OC(=O)C[C@@H](O)[C@H](C)[C@@H](O[C@@H]2O[C@H](C)[C@@H](O[C@H]3C[C@@](C)(O)[C@@H](O)[C@H](C)O3)[C@H](N(C)C)[C@H]2O)[C@@H](CC=O)C[C@@H](C)C(=O)/C=C/C(C)=C/[C@@H]1CO[C@@H]1O[C@H](C)[C@@H](O)[C@@H](OC)[C@H]1OC` ?
OUT: class 1

IN: Using the reported Euclidean distance, which band applies to CC(C)Cc1ccc(C(C)C(=O)O)cc1 (configuration not stated) [Ibuprofen Lysine] ?
OUT: class 2
